- Tested on: rodent lifetime carcinogenesis bioassay, tumor incidence TD50
- experimentSummary: carcinogenic potency in animals, long-term in vivo studies, CPDB compilation (AID 1745844)
- testSettings: mouse; strain B6C3F1; females; by gavage; site: liver; lesion: hepatocellular adenoma + hepatocellular carcinoma; dosed 102 weeks; study length 105 weeks
assayReadout: TD50

For the molecule ClC(Cl)Br , what TD50 is on record?
28.9 mg/kg/day

###

- System: rodent lifetime carcinogenesis bioassay, tumor incidence TD50
- experimentSummary: carcinogenic potency in animals, long-term in vivo studies, CPDB compilation (AID 1745844)
- testSettings: rat; strain Sprague-Dawley; females; in feed; site: gastric mucosa; lesion: carcinoid tumor, malignant; dosed 104 weeks; study length 104 weeks
assayReadout: TD50

For the compound NC(=O)CCCCn1ccc(NC(N)=NCC(F)(F)F)n1 , what TD50 is on record?
1350 mg/kg/day

Cited source: PubChem BioAssay AID1745844
